System: 227483-062-R1-J1-PDC complex spheroids with HUVEC/MSC, viability
protocolDescription: Anticancer human tumor 227483-062-R1-J1-PDC patient-derived pancreatic carcinoma cell line growth inhibition [CLK]; active = viability on the fitted dose curve at most 10% of control; inactive = the rest
conditionsUsed: second compound 1 µM; first compound 0.0316 µM
Return exactly one item of Y (active), N (inactive)

Asked: Identify the outcome logged in this assay for the molecule shown: COc1c(OCCCN2CCOCC2)ccc2c3n(c(=NC(=O)c4cnc(N)nc4)nc12)CCN3 + CNC(=O)c1ccc(Nc2nc(OC3CCCC3)c3c(-c4ccc5nc(C)oc5c4)c[nH]c3n2)c(OC)c1
Given back: N

Asked: Try this molecule next: COC1C=CCC(C)C(C)S(=O)(=O)NC(=O)c2ccc3c(c2)N(CC2CCC21)CC1(CCCc2cc(Cl)ccc21)CO3 (centres undefined) + CN1CCN(c2cc(C(=O)Nc3cc4cc(-c5cnn(C)c5)ccc4cn3)ccn2)CC1
Given back: Y

Asked: Try this molecule next: COc1ccc([C@@H](O)c2cc(-c3ncnc4cc(N5CCOCC5)ccc34)c(F)cc2Cl)nn1 + CNC(=O)c1ccc(Nc2nc(OC3CCCC3)c3c(-c4ccc5nc(C)oc5c4)c[nH]c3n2)c(OC)c1
Given back: N

Asked: Try this molecule next: CC(=O)O[C@H]1C(=O)[C@@]2(C)[C@H]([C@H](OC(=O)c3ccccc3)[C@]3(O)C[C@H](OC(=O)[C@H](O)[C@@H](NC(=O)c4ccccc4)c4ccccc4)C(C)=C1C3(C)C)[C@]1(OC(C)=O)CO[C@@H]1C[C@@H]2O + CNC(=O)c1ccc(Nc2nc(OC3CCCC3)c3c(-c4ccc5nc(C)oc5c4)c[nH]c3n2)c(OC)c1
Given back: N

----------
Test system: 227483-062-R1-J1-PDC complex spheroids with HUVEC/MSC, viability
protocolDescription: Anticancer human tumor 227483-062-R1-J1-PDC cell line growth inhibition [CLK]; active = viability on the fitted dose curve at most 10% of control; inactive = the rest;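 also: spheroids exposed to compounds for seven days before readout; percent of DMSO vehicle control luminescence as 100% viability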
conditionsUsed: second compound 0.316 µM; first compound 0.0316 µM
Return exactly one item of active, inactive

Asked: Identify the outcome logged in this assay for the molecule shown: CCN1CCN(Cc2ccc(Nc3ncc(F)c(-c4cc(F)c5nc(C)n(C(C)C)c5c4)n3)nc2)CC1 + CNC(=O)c1ccc(Nc2nc(OC3CCCC3)c3c(-c4ccc5nc(C)oc5c4)c[nH]c3n2)c(OC)c1
Given back: inactive

Asked: Try this molecule next: CC1COCCN1c1cc(C2(S(C)(=N)=O)CC2)nc(-c2ccnc3[nH]ccc23)n1 (stereo not given) + CN1CCN(c2cc(C(=O)Nc3cc4cc(-c5cnn(C)c5)ccc4cn3)ccn2)CC1
Given back: active

Asked: Try this molecule next: CC(=O)O[C@H]1C(=O)[C@@]2(C)[C@H]([C@H](OC(=O)c3ccccc3)[C@]3(O)C[C@H](OC(=O)[C@H](O)[C@@H](NC(=O)c4ccccc4)c4ccccc4)C(C)=C1C3(C)C)[C@]1(OC(C)=O)CO[C@@H]1C[C@@H]2O + CNC(=O)c1ccc(Nc2nc(OC3CCCC3)c3c(-c4ccc5nc(C)oc5c4)c[nH]c3n2)c(OC)c1
Given back: inactive

Asked: Try this molecule next: CC(=O)O[C@H]1C(=O)[C@@]2(C)[C@H]([C@H](OC(=O)c3ccccc3)[C@]3(O)C[C@H](OC(=O)[C@H](O)[C@@H](NC(=O)c4ccccc4)c4ccccc4)C(C)=C1C3(C)C)[C@]1(OC(C)=O)CO[C@@H]1C[C@@H]2O + CN1CCN(c2cc(C(=O)Nc3cc4cc(-c5cnn(C)c5)ccc4cn3)ccn2)CC1
Given back: active

Asked: Try this molecule next: O=c1[nH]cc(F)c(=O)[nH]1 + CN1CCN(c2cc(C(=O)Nc3cc4cc(-c5cnn(C)c5)ccc4cn3)ccn2)CC1
Given back: active

Asked: Try this molecule next: COc1cccc2c1C(=O)c1c(O)c3c(c(O)c1C2=O)CC(O)(C(=O)CO)CC3OC1CC(N)C(O)C(C)O1 (stereo not given) + CN1CCN(c2cc(C(=O)Nc3cc4cc(-c5cnn(C)c5)ccc4cn3)ccn2)CC1
Given back: active

Asked: Try this molecule next: CC(Nc1ccc2c(c1)OCCn1cc(N3C(=O)OCC3C(F)F)nc1-2)C(N)=O (stereo not given) + CNC(=O)c1ccc(Nc2nc(OC3CCCC3)c3c(-c4ccc5nc(C)oc5c4)c[nH]c3n2)c(OC)c1
Given back: inactive

Asked: Try this molecule next: CCc1c2c(nc3ccc(O)cc13)-c1cc3c(c(=O)n1C2)COC(=O)[C@]3(O)CC + CN1CCN(c2cc(C(=O)Nc3cc4cc(-c5cnn(C)c5)ccc4cn3)ccn2)CC1
Given back: active

Asked: Try this molecule next: Cn1ncnc1[C@H]1c2n[nH]c(=O)c3cc(F)cc(c23)N[C@@H]1c1ccc(F)cc1 + CN1CCN(c2cc(C(=O)Nc3cc4cc(-c5cnn(C)c5)ccc4cn3)ccn2)CC1
Given back: active

Asked: Try this molecule next: O=C(c1cc(Cc2n[nH]c(=O)c3ccccc23)ccc1F)N1CCN(C(=O)C2CC2)CC1 + CN1CCN(c2cc(C(=O)Nc3cc4cc(-c5cnn(C)c5)ccc4cn3)ccn2)CC1
Given back: active

----------
Test system: 227483-062-R1-J1-PDC complex spheroids with HUVEC/MSC, viability
protocolDescription: Anticancer human tumor 227483-062-R1-J1-PDC cell line growth inhibition [CLK]; active means viability on the fitted dose curve at most 10% of control; inactive means the rest;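 also: spheroids exposed to compounds for seven days before readout; percent of DMSO vehicle control luminescence as 100% viability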
conditionsUsed: second compound 3.16 µM; first compound 0.01 µM
From the text: A high-throughput screen of multi-cell type tumor spheroids was designed to identify active combinations of […] and targeted small molecules. Complex spheroids include a stromal component modeled by human endothelial cells (HUVEC) and fibroblasts modeled by human mesenchymal stem cells (MSCs). […] Compounds. […] If the clinical Cmax for an agent had not been determined, the highest concentration tested was 10 microM. […]
Return exactly one item of 1 = active, -1 = inactive

Asked: Identify the outcome logged in this assay for the compound shown: COc1c(OCCCN2CCOCC2)ccc2c3n(c(=NC(=O)c4cnc(N)nc4)nc12)CCN3 + CN1CCN(c2cc(C(=O)Nc3cc4cc(-c5cnn(C)c5)ccc4cn3)ccn2)CC1
Given back: 1

Asked: Try this compound next: CCc1c2c(nc3ccc(O)cc13)-c1cc3c(c(=O)n1C2)COC(=O)[C@]3(O)CC + CN1CCN(c2cc(C(=O)Nc3cc4cc(-c5cnn(C)c5)ccc4cn3)ccn2)CC1
Given back: 1

Asked: Try this compound next: COc1c(OCCCN2CCOCC2)ccc2c3n(c(=NC(=O)c4cnc(N)nc4)nc12)CCN3 + CNC(=O)c1ccc(Nc2nc(OC3CCCC3)c3c(-c4ccc5nc(C)oc5c4)c[nH]c3n2)c(OC)c1
Given back: -1

----------
Test system: 227483-062-R1-J1-PDC complex spheroids with HUVEC/MSC, viability
protocolDescription: Anticancer human tumor 227483-062-R1-J1-PDC cell line growth inhibition [CLK];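 also: spheroids exposed to compounds for seven days before readout; percent of DMSO vehicle control luminescence as 100% viability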
conditionsUsed: second compound 1 µM; first compound 0.0316 µM; hits give low values
viability, T/C less than 2% is Met; viability, T/C greater than or equal to 2% is Not met.

Asked: Is 2% strictly greater than the compound's reported viability, T/C? compound: CCc1c2c(nc3ccc(O)cc13)-c1cc3c(c(=O)n1C2)COC(=O)[C@]3(O)CC + CN1CCN(c2cc(C(=O)Nc3cc4cc(-c5cnn(C)c5)ccc4cn3)ccn2)CC1
Given back: Met

Asked: Try this compound next: C=CC(=O)N1CCN(c2nc(=O)n(-c3c(C)ccnc3C(C)C)c3nc(-c4c(O)cccc4F)c(F)cc23)C(C)C1 (stereo unspecified) + CN1CCN(c2cc(C(=O)Nc3cc4cc(-c5cnn(C)c5)ccc4cn3)ccn2)CC1
Given back: Not met

Asked: Try this compound next: O=c1[nH]cc(F)c(=O)[nH]1 + CN1CCN(c2cc(C(=O)Nc3cc4cc(-c5cnn(C)c5)ccc4cn3)ccn2)CC1
Given back: Met

Asked: Try this compound next: Nc1ccn(C2OC(CO)C(O)C2(F)F)c(=O)n1 (stereo unspecified) + CN1CCN(c2cc(C(=O)Nc3cc4cc(-c5cnn(C)c5)ccc4cn3)ccn2)CC1
Given back: Met

Asked: Try this compound next: COc1c(OCCCN2CCOCC2)ccc2c3n(c(=NC(=O)c4cnc(N)nc4)nc12)CCN3 + CN1CCN(c2cc(C(=O)Nc3cc4cc(-c5cnn(C)c5)ccc4cn3)ccn2)CC1
Given back: Met

Asked: Try this compound next: C#Cc1c(F)ccc2cc(O)cc(-c3ncc4c(N5CC6CCC(C5)N6)nc(OCC56CCCN5CC(F)C6)nc4c3F)c12 (stereo unspecified) + CNC(=O)c1ccc(Nc2nc(OC3CCCC3)c3c(-c4ccc5nc(C)oc5c4)c[nH]c3n2)c(OC)c1
Given back: Not met

----------
Tested on: 227483-062-R1-J1-PDC complex spheroids with HUVEC/MSC, viability
protocolDescription: Anticancer human tumor 227483-062-R1-J1-PDC cell line growth inhibition [CLK]; active means viability on the fitted dose curve at most 10% of control; inactive means the rest;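 also: spheroids exposed to compounds for seven days before readout; percent of DMSO vehicle control luminescence as 100% viability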
conditionsUsed: second compound 3.16 µM; first compound 0.1 µM
Return exactly one item of 1 for active, 0 for inactive

Asked: Identify the outcome logged in this assay for the molecule shown: CC1COCCN1c1cc(C2(S(C)(=N)=O)CC2)nc(-c2ccnc3[nH]ccc23)n1 (stereo not drawn) + CN1CCN(c2cc(C(=O)Nc3cc4cc(-c5cnn(C)c5)ccc4cn3)ccn2)CC1
Given back: 1

Asked: Try this molecule next: Cn1ncnc1[C@H]1c2n[nH]c(=O)c3cc(F)cc(c23)N[C@@H]1c1ccc(F)cc1 + CNC(=O)c1ccc(Nc2nc(OC3CCCC3)c3c(-c4ccc5nc(C)oc5c4)c[nH]c3n2)c(OC)c1
Given back: 0

Asked: Try this molecule next: COc1c(OCCCN2CCOCC2)ccc2c3n(c(=NC(=O)c4cnc(N)nc4)nc12)CCN3 + CN1CCN(c2cc(C(=O)Nc3cc4cc(-c5cnn(C)c5)ccc4cn3)ccn2)CC1
Given back: 1

Origin of values: PubChem BioAssay AID2060623
